Just for reference, paper PMC11249646 is where these values come from.

Biological target: CIB1 and αIIb interaction (CIB1-GST : F-αIIb peptide) (Homo sapiens, UniProt Q99828)
Construct: made in house; host or cells: BL-21 plus RIL cells (E. coli)
Sequence (Q99828 1-191): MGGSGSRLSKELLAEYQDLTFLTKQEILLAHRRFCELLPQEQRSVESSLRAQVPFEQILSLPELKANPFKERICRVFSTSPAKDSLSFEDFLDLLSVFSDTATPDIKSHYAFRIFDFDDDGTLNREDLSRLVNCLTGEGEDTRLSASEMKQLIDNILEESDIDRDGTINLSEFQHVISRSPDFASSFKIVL
Assay: FP assay, 1536-well qHTS format (primary and confirmatory screen)
Format: binding
Settings: qHTS FP screen hits, Table S2; read-out: IC50
Quick reference: IC50 of the listed items.

# annotated cases, reported IC50 shown
{"molecule": "O=C(O)C(F)(F)F.O=C(O)c1csc(-n2nc(-c3ccc(F)c(F)c3)c3cccc(O)c32)n1", "IC50": "3.2 µM"}
{"molecule": "Cc1ccc(C(=O)c2no[n+]([O-])c2C(=O)c2ccc(C)cc2)cc1.O=C(O)C(F)(F)F", "IC50": "11.2 µM"}

Problem: For CIB1 and αIIb interaction (CIB1-GST : F-αIIb peptide) (Homo sapiens, UniProt Q99828), give IC50 of the listed molecule: CN(C)CC1CCCN(C2CCN(C(=O)c3cccc(-c4cc(O)c5ncccc5c4)c3)CC2)C1.O=C(O)C(F)(F)F (stereo not shown)
Solution: 22.4 µM

Problem: # assay system CIB1 and αIIb interaction (CIB1-GST : F-αIIb peptide) (Homo sapiens, UniProt Q99828): give IC50 of CCOC(=O)c1nn(-c2ccc(OC)cc2)c(=O)c2c(N)scc12
Solution: 39.8 µM

* * *

molecular target: CIB1 and αIIb interaction (CIB1-GST : F-αIIb peptide) (Homo sapiens, UniProt Q99828); construct: made in house; host or cells: BL-21 plus RIL cells (E. coli); test: FP assay, 1536-well qHTS format (primary and confirmatory screen); format: binding; details: qHTS primary screen hits, Table S2; negative = inhibition
Would you mind labelling by Efficacy (%)? At or over -50% is rule met, under is rule not met.

{"molecule": "O=c1oc2ccccc2c(O)c1C(CC(O)c1ccc(-c2ccc(Br)cc2)cc1)c1ccccc1 (stereo not shown) [NCGC00163939-02]", "discrete label": "rule not met"}
{"molecule": "O=C(O)C(F)(F)F.O=C1CC(c2ccccc2Br)c2sc(N3CCOCC3)nc2N1 (stereo not shown) [NCGC00488255-02]", "discrete label": "rule not met"}
{"molecule": "O=C(O)C(F)(F)F.O=C(c1ccc(-c2cc(O)c3ncccc3c2)cc1)N1CCNCC1 [NCGC00183806-01]", "discrete label": "rule met"}
{"molecule": "CN1CCCN=C1/C=C/c1cccs1.O=C(O)c1cc2ccccc2c(Cc2c(O)c(C(=O)O)cc3ccccc23)c1O [NCGC00094552-04]", "discrete label": "rule met"}

Problem: Has COC(=O)c1cc(Cl)ccc1NS(=O)(=O)C(F)(F)F [NCGC00249937-01] a recorded Efficacy (%) greater than or equal to -50%?
Solution: rule not met

Problem: Could you verify whether the entry Cc1ccc(C)n1-c1sccc1C(=O)O [NCGC00253437-01] shows Efficacy (%) of no less than -50%?
Solution: rule not met

Problem: Given the entry CCCCCc1c2c(cc(O)c1C(=O)O)OC(=O)c1c(cc(OC)cc1C(=O)CCCC)O2.O=C(O)C(F)(F)F [NCGC00095570-05] , answer whether its Efficacy (%) meets or surpasses -50%.
Solution: rule met

Problem: Can Cc1cnc(-c2ccccc2C(C)C)nc1NC(C)c1ccc(-c2cccnc2)cc1.O=C(O)C(F)(F)F (stereo not shown) [NCGC00253889-01] be said to have Efficacy (%) at or above -50%?
Solution: rule not met

Problem: # check: Efficacy (%) of CC(=O)NCc1ccc(-c2csc(Nc3cccc(C)c3)n2)o1.O=C(O)C(F)(F)F [NCGC00304445-03] is greater than or equal to -50%
Solution: rule met

Problem: Quick check: does C#CCCC(=O)Nc1sc2c(c1-c1nc3ccccc3s1)CCN(C(C)C)C2.O=C(O)C(F)(F)F [NCGC00185086-01] have Efficacy (%) greater than or equal to -50%?
Solution: rule met

Problem: Decide: is the reported value of Efficacy (%) for CN1CCN(c2nc3cc(C(F)(F)F)ccc3n3cccc23)CC1.O=C(O)/C=C\C(=O)O [NCGC00015180-05] equal to or greater than -50%?
Solution: rule met

Problem: Determine whether this molecule has Efficacy (%) no lower than -50%: CC1(C)N=C(Nc2nc3ccccc3o2)NC2=C1C(=O)CCC2.O=C(O)C(F)(F)F [NCGC00187643-01]
Solution: rule met

Problem: // inclusive: Efficacy (%) at least -50%? input: COc1ccc(CC(=O)Nc2ccc(S(=O)(=O)Nc3cc(C)on3)cc2)cc1C.O=C(O)C(F)(F)F [NCGC00244861-01]
Solution: rule met

Problem: Form field: Efficacy (%) at least -50%? Entry: CN1Cc2c(N)cccc2C(c2ccccc2)C1.O=C(O)/C=C\C(=O)O (stereo not shown) [NCGC00015727-06]
Solution: rule not met
